biological target: Trace amine-associated receptor 1 (Homo sapiens); test: blockers of beta-PEA-driven TAAR1 calcium signal – Fluo-8 calcium fluorescence, CHO RD-HGA16 cells, primary screen (AID 624466); settings: CHO RD-HGA16 TAAR1, Fluo-8 calcium fluorescence, antagonist; at 3 µM; active compounds read high;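 note: 0% = DMSO plus EC80 beta-PEA response and 100% = DMSO alone without agonist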
The whole screen tested about 360,000 compounds, of which about 5,400 (1.5%) were called active. What follows is part of a selection rich in actives, with near analogues and random picks from the rest.
Exercise: for every item that follows, state its recorded inhibition.

Please review the entries below; each comes with its answer.
- Molecule: "CC1CN(S(=O)(=O)c2ccc(C(=O)Nc3sccc3C(N)=O)cc2)CC(C)O1 (stereo not given)"
  Property label: "inhibition"
  Value measured: "9.54% (inactive)"
- Molecule: "C#CCN([C@@H](C)C(=O)OCC)S(=O)(=O)c1ccc(Br)cc1F"
  Property label: "inhibition"
  Value measured: "15% (inactive)"
- Molecule: "Cc1nc2ccccc2n1C(=O)N1CCOCC1"
  Property label: "inhibition"
  Value measured: "12.8% (inactive)"

List reported inhibition for each of these molecules:
1. O=C(CSc1nc(-c2ccco2)cc(C(F)(F)F)n1)NCc1cccs1
2. COC1(C2=NCCN2)COc2ccccc2O1 (stereo not given)
3. CNC(=O)c1ccsc1NC(=O)c1ccc(S(=O)(=O)N2CCc3ccccc32)cc1
4. CCn1c(/C=C/Nc2ccccc2)[n+](CC)c2ccc(C(=O)OCC(F)(F)F)cc21
5. NS(=O)(=O)c1ccc(CNC(=O)c2cccc(S(=O)(=O)N3CCc4ccccc43)c2)cc1

Data returned:
1: 58.2% (active); 2: -15.3% (inactive); 3: 62.9% (active); 4: -27.5% (inactive); 5: -6.37% (inactive)

Give inhibition for each of the items listed below.
1. O=C(COC(=O)COc1ccccc1F)Nc1cccc(S(=O)(=O)N2CCCCC2)c1
2. C=CC[C@]12C[C@@]3(O[C@H](c4ccc(C(F)(F)F)cc4)N=C3C[C@H](c3ccc(OC)cc3)[C@H]1C)N(C1CCN(Cc3ccccc3)CC1)C2=O

Data returned:
1. -6.77% (inactive)
2. -52.6% (inactive)

====

biological target: Trace amine-associated receptor 1 (Homo sapiens) (UniProt Q96RJ0); experiment: blockers of beta-PEA-driven TAAR1 calcium signal – Fluo-8 calcium fluorescence, CHO RD-HGA16 cells, primary screen (AID 624466); conditions: CHO RD-HGA16 TAAR1, Fluo-8 calcium fluorescence, antagonist; at 3 µM; active compounds read high;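 note: 0% = DMSO plus EC80 beta-PEA response and 100% = DMSO alone without agonist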
Sequence (Q96RJ0 whole entry, looked up): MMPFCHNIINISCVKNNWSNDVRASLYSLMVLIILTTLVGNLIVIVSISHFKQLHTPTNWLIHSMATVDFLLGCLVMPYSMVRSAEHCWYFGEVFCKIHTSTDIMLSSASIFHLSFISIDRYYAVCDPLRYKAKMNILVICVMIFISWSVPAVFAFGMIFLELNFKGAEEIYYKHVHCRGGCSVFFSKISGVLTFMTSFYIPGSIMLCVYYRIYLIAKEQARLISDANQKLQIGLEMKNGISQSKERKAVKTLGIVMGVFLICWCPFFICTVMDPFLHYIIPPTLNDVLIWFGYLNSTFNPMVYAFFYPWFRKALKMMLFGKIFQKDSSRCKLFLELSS
Screen size: about 360,000 compounds; about 5,400 (1.5%) were called active. Many of the other results were omitted from the sample, so actives are more common in it than they were.
Property label: inhibition (%)
Numbers only, in %.

Batch: inhibition for all items listed.
1. COC(=O)[C@]12C[C@H](CC(=O)NCCC(C)C)C(=O)N(CCc3ccc(OC)c(OC)c3)C1=C[C@H](C(C)(C)C)O[C@@H]2C
2. CC(=O)C1=C(C)N(Cc2ccccc2)C(=S)NC1c1cccc(Br)c1 (stereo not given)
3. C/C(=N/Nc1ccc(Cl)cc1)c1cnnc(-c2ccccc2)n1
4. COC(=O)C1=C(C)N(Cc2ccccc2C(F)(F)F)C(=NCC2CC2)NC1c1cccc(Cl)c1 (stereo not given)
5. COc1cccc(CNC(=O)[C@H]2CCCN2C(=O)[C@H]2CCCN2C(=O)c2ccc(F)cc2)c1
6. Cc1cccc(N(C(=O)c2csnn2)C(C(=O)NCc2ccccc2)c2ccncc2)c1 (stereo not given)

Data returned:
-15.9
25.4
8.2
1.62
-14.1
-12.4
